System: P. aeruginosa SR01332
assay-protocol: MIC, CLSI broth microdilution, Test Example 2
Assay type: cell-based
measurement-context: Pseudomonas aeruginosa, SR01332; VIM-11 MBL producing strain (carbapenem resistance strain); cation-adjusted Iso-Sensitest broth containing human Apo-transferrin; 5×10^5 cfu/mL; read-out: Minimum Inhibitory Concentration (MIC) P. aeruginosa SR01332
Measured MIC values are reported for all entries that follow.
In your response, the unit should come after the numeric value.

Example cases with answers are listed next.
Output measured MIC for this item: Cc1cc2cc(O)c(O)cc2c[n+]1CC1=C(c2nnn[nH]2)N2C(=O)[C@@H](NC(=O)/C(=N\OC(C)(C)C(=O)O)c3nsc(N)n3)[C@H]2SC1.[Na+]
0.5 µg/mL

Output measured MIC for this item: CC(C)(O/N=C(\C(=O)N[C@@H]1C(=O)N2C(c3nnn[nH]3)=C(C[N+]3(CCNC(=O)c4ccc(O)c(O)c4Cl)CCCCC3)CS[C@H]12)c1nsc(N)n1)C(=O)[O-]
8 µg/mL

Output measured MIC for this item: Nc1nc(/C(=N/O[C@@H](CC(=O)[O-])C(=O)[O-])C(=O)N[C@@H]2C(=O)N3C(c4nnn[n-]4)=C(C[N+]4(CCNC(=O)c5cc(Cl)c(O)c(O)c5Cl)CCCC4)CS[C@H]23)cs1.[Na+].[Na+]
4 µg/mL

Continuing:
Output measured MIC for this item: CC(C)(O/N=C(\C(=O)N[C@@H]1C(=O)N2C(c3nnn[n-]3)=C(C[n+]3cccc4c3CCCN4C(=O)c3ccc(O)c(O)c3Cl)CS[C@H]12)c1nc(N)sc1Cl)C(=O)[O-].[Na+]
1 µg/mL

====

System: P. aeruginosa SR27060
assay-protocol: MIC, CLSI broth microdilution, Test Example 1
Format: cell-based
measurement-context: Pseudomonas aeruginosa, SR27060; IMP-1 MBL producing strain (carbapenem resistance strain); cation-adjusted Mueller Hinton broth containing human apo-transferrin; 5×10^5 cfu/mL; read-out: Minimum Inhibitory Concentration (MIC) P. aeruginosa SR27060
experimental-endpoint: MIC
In your response, the unit should come after the numeric value.

Example cases with answers are listed next.
Output measured MIC for this item: CC(C)(O/N=C(\C(=O)N[C@@H]1C(=O)N2C(c3nnn[n-]3)=C(C[N+]3(CCNC(=O)c4ccc(O)c(O)c4F)CCCC3)CS[C@H]12)c1csc(N)n1)C(=O)[O-].[Na+]
0.25 µg/mL

Output measured MIC for this item: CC(C)(O/N=C(\C(=O)N[C@@H]1C(=O)N2C(c3nn[n-]n3)=C(C[N+]3(Cc4nnc(-c5ccc(O)c(O)c5Cl)o4)CCCC3)CS[C@H]12)c1csc(N)n1)C(=O)[O-].[Na+]
0.5 µg/mL

Output measured MIC for this item: CC(C)(O/N=C(\C(=O)N[C@@H]1C(=O)N2C(c3nnn[n-]3)=C(C[n+]3ccc(-c4ccc(O)c(O)c4Cl)cc3)CS[C@H]12)c1csc(N)n1)C(=O)[O-].[Na+]
0.25 µg/mL

Output measured MIC for this item: CC(C)(O/N=C(\C(=O)N[C@@H]1C(=O)N2C(c3nn[n-]n3)=C(C[n+]3ccc(C(=O)c4ccc(O)c(O)c4Cl)cc3)CS[C@H]12)c1csc(N)n1)C(=O)[O-].[Na+]
0.25 µg/mL

Output measured MIC for this item: CC(C)(O/N=C(\C(=O)N[C@@H]1C(=O)N2C(c3nnn[nH]3)=C(C[N+]3(CCNC(=O)c4cc(Cl)c(O)c(O)c4Cl)CCCC3)CS[C@H]12)c1csc(N)n1)C(=O)[O-]
0.5 µg/mL

Continuing:
Output measured MIC for this item: CC(C)(O/N=C(\C(=O)N[C@@H]1C(=O)N2C(c3nnn[n-]3)=C(C[N+](C)(C)CCNC(=O)c3ccc(O)c(O)c3Cl)CS[C@H]12)c1csc(N)n1)C(=O)[O-].[Na+]
1 µg/mL

Output measured MIC for this item: CC(C)(O/N=C(\C(=O)N[C@@H]1C(=O)N2C(c3nnn[n-]3)=C(C[N+]34CCCC3(CNC(=O)c3ccc(O)c(O)c3Cl)CCC4)CS[C@H]12)c1cnc(N)s1)C(=O)[O-].[Na+] (stereo partly shown)
0.25 µg/mL

Output measured MIC for this item: CC(C)(O/N=C(\C(=O)N[C@@H]1C(=O)N2C(c3nnn[nH]3)=C(C[N+]3(CCNC(=O)c4cc(O)c(O)c(F)c4)CCCC3)CS[C@H]12)c1csc(N)n1)C(=O)[O-]
0.5 µg/mL

Output measured MIC for this item: Cc1c(O)c(O)cc2cc[n+](CC3=C(c4nnn[n-]4)N4C(=O)[C@@H](NC(=O)/C(=N\OC(C)(C)C(=O)[O-])c5csc(N)n5)[C@H]4SC3)cc12.[Na+]
0.25 µg/mL

Output measured MIC for this item: CC(C)(O/N=C(\C(=O)N[C@@H]1C(=O)N2C(c3nnn[n-]3)=C(C[N+]3(C)[C@@H]4CC[C@H]3C[C@@H](NC(=O)c3ccc(O)c(O)c3Cl)C4)CS[C@H]12)c1csc(N)n1)C(=O)[O-].[Na+] (stereo partly shown)
1 µg/mL
